# ASSAY_PROCEDURE: modulators of S6 phosphorylation in cells, primary screen, cell-based, A549, cytoblot, luminescence, serum-stimulated (AID 1158);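 also: serum-stimulated A549 lung adenocarcinoma cells; signal is phosphorylated S6 detected by cytoblot immunostaining with HRP secondary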
# CONDITION_PARAMETERS: A549 phospho-S6 cytoblot, 5 h, higher = more signal
Below is a list of entries, each paired with its recorded z-score value.
Hey, just send me the number, nothing else.

Use the examples below as a reference point.
[[record]]
smiles_input = "CCCC=C(CCC)[C@@H](NS(=O)(=O)c1cccc2cccnc12)c1ccc(-c2ccccc2)cc1"
observable = "z-score"
experimental_value = 0.389

[[record]]
smiles_input = "CCCNC(=O)[C@@]1(Sc2ccc(C)cc2)CC(=O)N(C2CCCCC2)[C@@H]1c1ccc(CO)cc1I"
observable = "z-score"
experimental_value = -0.328


With those in mind, consider the next compound.
Qu. Need z-score of COc1ccc([Si](C)(C)[C@@H]2[C@@H](CCn3cc([C@H](O)c4ccccc4)nn3)O[C@]3(C(=O)N(c4ccccc4)c4ccccc43)[C@H]2C)cc1 , thanks.
Ans. 0.751
